assay.method.text: Absorbance and fluorescence emission spectra (SpectraMax M2)
Assay type: physicochemical
reported.conditions: MKCA compound library; fluorescence emission maximum
Experimental: BDC-8 (Blue): absorbance λmax=473 nm, emission λmax=585 nm; MK101-8 (Green): absorbance λmax=474 nm, emission λmax=563 nm; MKHA374-48 (Yellow): absorbance λmax=468 nm, λem=557 nm. The corresponding spectra of a reported BODIPY (BD-27; Red) are also included for comparison: absorbance λmax=551 nm, emission λmax=568 nm. […] ^1H-NMR, ^19F-NMR and ^13C-NMR spectra were recorded on Bruker ACF300 (300 MHz), DPX300 (300 MHz) and AMX500 (500 MHz) spectrometers. […]
measurement.name: λmax Emission (nm)
Give bare numbers, in nm.

# molecule, measurement.name, unit.name, endpoint.value
data = [
    ("COc1ccc(OC)c(CNC2=[N+]3C(=C(c4ccc(NC(=O)CCl)cc4)c4ccc(-n5cc(CC(C)C)nn5)n4[B-]3(F)F)C=C2)c1", "λmax Emission (nm)", "nm", 564),
    ("CC(C)Cc1cn(-c2ccc3n2[B-](F)(F)[N+]2=C(N4CC(C)OC(C)C4)C=CC2=C3c2ccc(NC(=O)CCl)cc2)nn1 (stereo not shown)", "λmax Emission (nm)", "nm", 585),
    ("Cc1ccccc1CNC1=[N+]2C(=C(c3ccc(NC(=O)CCl)cc3)c3ccc(-n4cc(CC5CCCCC5)nn4)n3[B-]2(F)F)C=C1", "λmax Emission (nm)", "nm", 562),
    ("CCCC(C)c1cn(-c2ccc3n2[B-](F)(F)[N+]2=C(NCc4cc(F)cc(F)c4)C=CC2=C3c2ccc(NC(=O)CCl)cc2)nn1 (stereo not shown)", "λmax Emission (nm)", "nm", 563),
    ("CN(Cc1ccccc1)Cc1cn(-c2ccc3n2[B-](F)(F)[N+]2=C(N4CCc5ccccc5C4)C=CC2=C3c2ccc(NC(=O)CCl)cc2)nn1", "λmax Emission (nm)", "nm", 585),
]

Quick batch: λmax Emission (nm) for everything below.
1. Cc1ccccc1CNC1=[N+]2C(=C(c3ccc(NC(=O)CCl)cc3)c3ccc(-n4cc(CC(C)C)nn4)n3[B-]2(F)F)C=C1
2. CCCC(C)c1cn(-c2ccc3n2[B-](F)(F)[N+]2=C(N4CC(C)OC(C)C4)C=CC2=C3c2ccc(NC(=O)CCl)cc2)nn1 (stereo not shown)
3. O=C(CCl)Nc1ccc(C2=C3C=CC(NCc4cc(F)cc(F)c4)=[N+]3[B-](F)(F)n3c2ccc3-n2cc(CCc3ccccc3)nn2)cc1
4. Cc1ccccc1CNC1=[N+]2C(=C(c3ccc(NC(=O)CCl)cc3)c3ccc(-n4cc(C5CCCC5)nn4)n3[B-]2(F)F)C=C1
5. CC1CN(C2=[N+]3C(=C(c4ccc(NC(=O)CCl)cc4)c4ccc(-n5cc(CC6CCCCC6)nn5)n4[B-]3(F)F)C=C2)CC(C)O1 (stereo not shown)

562
581
563
563
573

List reported λmax Emission (nm) for each of these molecules:
1. CCCc1cn(-c2ccc3n2[B-](F)(F)[N+]2=C(NCc4ccccc4C)C=CC2=C3c2ccc(NC(=O)CCl)cc2)nn1
2. CCCc1cn(-c2ccc3n2[B-](F)(F)[N+]2=C(N4CCCC4)C=CC2=C3c2ccc(NC(=O)CCl)cc2)nn1
3. CCCCCC(O)c1cn(-c2ccc3n2[B-](F)(F)[N+]2=C(NCc4cc(F)cc(F)c4)C=CC2=C3c2ccc(NC(=O)CCl)cc2)nn1 (stereo not shown)

562
565
562
